Target: GRASP, Q7Z6J2
Sequence (Q7Z6J2 96-193): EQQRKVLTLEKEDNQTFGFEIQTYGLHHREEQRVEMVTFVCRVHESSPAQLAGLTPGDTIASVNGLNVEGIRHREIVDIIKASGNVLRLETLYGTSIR
Test: holdup assay
Set-up: key: below the threshold = too weak to quantify, mostly under pKd 3.1 to 4
Details: plain residues with an end cap or a label only (N-terminal biotin on a linker: ado-ado)
Can you tell me pKd for the items I'm about to list?
Answers are plain numbers.

Here is how some binders turned out for pKd.
LESTTVGTSV [KARS1, Q15046]; 3.95
LKDDELKTKL [SLCO1A2, P46721]; 4.37
QSGLYESEEL [MYOT, Q9UBF9]; 4.09
KKMLQRRTLL [OR8G1, Q15617]; 5.05
AEASVACSLC [PTGIR, P43119]; 4.43

Need pKd for each of these binders.
1. KRPEMTSSSV [MUC3B, MUC3A, Q02505;Q9H195]
2. PSHPRLQTHV [KIRREL2, Q6UWL6]
3. DDASLPVSDV [PLEKHA1, Q9HB21]
4. EKCGKEFSEF [PRKACA, P17612]
5. GEDRSPPTAL [MKNK1, Q9BUB5]
6. PSVGSKKTVL [REELD1, A0A1B0GV85]

a:
1: 4; 2: 4.18; 3: 3.65; 4: 4.16; 5: 4.62; 6: 4.43

Need pKd for each of these binders.
1. GIKKITSTAL [RPS6KA3, P51812]
2. DGVNEKVSCV [HTR2A, P28223]
3. PTPDLPQTRV [KLHDC7A, Q5VTJ3]
4. TISFTQTSQF [SLC1A1, P43005]
5. MQHQRTHTRV [ZSCAN30, Q86W11]

a:
1. 4.68
2. 4.21
3. 3.64
4. 5.31
5. 4.34
